Cited source for all entries: patent US9012651B2

- TARGET OR TEST SYSTEM: human TRPV3 receptors (Homo sapiens (Human))
- Sequence (Q8NET8 whole entry): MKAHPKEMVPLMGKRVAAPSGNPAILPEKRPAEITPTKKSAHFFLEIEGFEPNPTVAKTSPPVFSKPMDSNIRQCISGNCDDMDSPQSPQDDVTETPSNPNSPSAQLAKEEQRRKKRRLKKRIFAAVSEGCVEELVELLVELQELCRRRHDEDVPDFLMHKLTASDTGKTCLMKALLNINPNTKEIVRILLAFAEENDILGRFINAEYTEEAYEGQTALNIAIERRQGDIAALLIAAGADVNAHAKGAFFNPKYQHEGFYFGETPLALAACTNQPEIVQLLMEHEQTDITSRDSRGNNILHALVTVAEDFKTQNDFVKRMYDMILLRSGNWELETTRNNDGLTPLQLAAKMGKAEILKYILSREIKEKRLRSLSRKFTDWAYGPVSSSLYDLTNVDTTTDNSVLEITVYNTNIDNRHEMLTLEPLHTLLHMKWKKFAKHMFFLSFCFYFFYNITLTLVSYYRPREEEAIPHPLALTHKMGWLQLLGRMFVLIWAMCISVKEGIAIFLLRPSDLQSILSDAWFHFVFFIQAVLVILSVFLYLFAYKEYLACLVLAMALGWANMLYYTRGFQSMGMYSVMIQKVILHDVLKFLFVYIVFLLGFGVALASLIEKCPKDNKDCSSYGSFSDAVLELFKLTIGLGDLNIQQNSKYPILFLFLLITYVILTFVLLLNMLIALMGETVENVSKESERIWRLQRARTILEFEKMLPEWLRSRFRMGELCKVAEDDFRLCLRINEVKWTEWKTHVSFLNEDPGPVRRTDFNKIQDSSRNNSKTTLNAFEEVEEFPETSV
- METHOD NOTES: Calcium flux assay (FLIPR TETRA), inhibition of the 2-APB response
- MEASUREMENT CONTEXT: recombinant HEK293 cells stably expressing TRPV3, Calcium-4 dye, 2-APB at its EC80
QUANTITY KIND: IC50

Guide cases for IC50, answers given:
CC(C)[C@H](CO)NCc1ccnc(-c2ccc(C(F)(F)F)cn2)n1 [Example 192]: > 20 µM
OCC1(NCc2ccnc(-c3ccc(C(F)(F)F)cc3)n2)CC1 [Example 135]: > 20 µM
OC[C@@H](Cc1ccccc1)NCc1ccnc(-c2ccc(C(F)(F)F)cc2)n1 [Example 140]: > 20 µM
CC(C)[C@H](CO)NCc1nc([C@H]2CC[C@H](C(F)(F)F)CC2)ccc1F [Example 258]: 0.29 µM
OCC1(NCc2ccnc(-c3ccc(C(F)(F)F)cc3)n2)CCCC1 [Example 133]: 9.32 µM

Notebook: COCC(CO)NCc1ccnc(-c2ccc(S(=O)(=O)C(F)(F)F)cc2)n1 (stereo not drawn) [Example 210] , IC50 read as 18.5 µM

Notebook: CC(C)[C@@H](NCc1nc(-c2ccc(C(F)(F)F)cc2)ccc1F)C(C)(C)O [Example 105] , IC50 read as 2.76 µM

Notebook: OCC1(CNCc2ccnc(-c3ccc(C(F)(F)F)cc3)n2)COC1 [Example 160] , IC50 read as > 20 µM

Notebook: O[C@H]1CCCC[C@@H]1NCc1nc(-c2ccc(C(F)(F)F)nc2)ccc1F [Example 122] , IC50 read as 3.94 µM

Notebook: OC(CNCc1ccnc(-c2ccc(C(F)(F)F)cc2)n1)C(F)(F)F (stereo not drawn) [Example 179] , IC50 read as > 20 µM

Notebook: CC(C)[C@H](CO)NCc1nc(-c2ccc(OC(F)(F)F)cc2)ccc1F [Example 19] , IC50 read as 0.23 µM
